tested on: U2OS; assay: Incucyte cell viability with U2OS; format: toxicity, cell-based; conditions: human, 24 h, 10 µM, compound concentration 10 uM, replicate number 2; note: unitless GR value; below 1 slowed growth and below 0 cell loss
Assignment: determine reported Growth Rate for the given compounds.
Give bare numbers.

>>> df
                                   compound  measured_parameter  result_value
0  CC(C)C(=O)N[C@@H]1CCN(C(=O)Nc2nc3c(s2)-c2nc(-c4ccccc4Cl)ncc2CC3)C1         Growth Rate          0.69
1  Cc1nccn1-c1ccc(Sc2cccc(C3(C(N)=O)CCOCC3)c2)cc1         Growth Rate          0.81
2      COc1ccc2nc3ccc(OC)cc3c(SCCCN)c2c1.Cl         Growth Rate          0.85
3  O=C(N[C@H](Cc1ccccc1)C(=O)O)c1cccc(OCc2cccnc2)c1.O=CO         Growth Rate          0.86
4         C[S+](C)[O-] [DIMETHYL SULFOXIDE]         Growth Rate          0.44

Give Growth Rate for each of the items listed below.
1. CCNCCNC(=O)c1c(C)[nH]c(/C=C2\C(=O)Nc3ccc(F)cc32)c1C
2. C[C@@H]1C[C@H](C)CN(c2ncc(Cl)c(Nc3ccc4c(c3)cc(OC(C)(C)C(=O)O)c(=O)n4C)n2)C1
3. O=C(NCc1cccc(O)c1)Nc1nc(-c2ccncc2)cs1
4. O=C1NC(=NCc2cccs2)SC1=Cc1ccc2ncccc2c1
5. N#Cc1c(SCc2csc(-c3ccc(Cl)cc3)n2)nc(N2CCCC2)c(C#N)c1-c1ccc(OCCO)cc1

Response:
0.7
0.72
1
0.39
0.97

---

system: U2OS; test: Incucyte cell viability with U2OS; type: toxicity, cell-based; settings: human, 0 h, 10 µM, compound concentration 10 uM, replicate number 1; note: unitless GR value; below 1 slowed growth and below 0 cell loss
MEASURED_PARAMETER: Growth Rate
One number for each entry.

>>> df
                                   molecule  measured_parameter  result_value
0  CN[C@@H](C)C(=O)N[C@H](C(=O)N1CCC[C@H]1c1nc(C(=O)c2ccc(F)cc2)cs1)C1CCCCC1         Growth Rate         -0.08
1  NS(=O)(=O)c1cncc(-c2nc(NCc3ccccn3)c3c(-c4ccccc4)cccc3n2)c1         Growth Rate          0.72
2  CCn1ccc(Nc2ncc3c(n2)-c2c(nn(C)c2-c2ccc(-c4cnn(C)c4)cc2Cl)CC3)n1         Growth Rate            -1
3  COc1ccc(-c2csc(NC(=O)[C@H]3CCCCN3S(=O)(=O)c3ccc(C)cc3)n2)cc1         Growth Rate          0.22
4  COP(=O)(CCC(N)C(=O)O)Oc1cccc(CC(=O)O)c1 (centres undefined)         Growth Rate          0.98

Give Growth Rate for each of the items listed below.
1. Clc1cccc(Nc2nccc(NCCCN3CCOCC3)n2)c1
2. CCn1c(-c2ccncc2)cc2c1CCNC2=O
3. Oc1c(CN2CCCC2)cc(COCc2ccccc2)c2cccnc12
4. COc1c(OCCCN2CCOCC2)ccc2c1N=C(NC(=O)c1cnc(N)nc1)N1CCN=C21

Response:
[-0.75, -0.56, 0.25, -0.44]

---

tested on: Fibroblast; test: Incucyte cell viability with human fibroblast; type: toxicity, cell-based; conditions: 18 h, 10 µM, compound concentration 10 uM, replicate number 2; note: unitless GR value; below 1 slowed growth and below 0 cell loss
MEASURED_PARAMETER: Growth Rate

Sample records with Growth Rate:
In [3]: df
Out[3]:
                                   compound  measured_parameter  result_value
0  CN[C@@H]1CC[C@@H](c2ccc(Cl)c(Cl)c2)c2ccccc21.Cl         Growth Rate         -0.33
1  COc1cccc(CNc2ccc(S(=O)(=O)Nc3nc4ccccc4s3)cc2)c1O [VLX-1005]         Growth Rate          0.84
2  COC(=O)c1cc2c(cn1)[nH]c1ccccc12 [BETA-CCM]         Growth Rate          0.98

Here is another compound to look at.
Prompt: Please report the measured Growth Rate for C[C@H](CCC(=O)O)[C@H]1CC[C@H]2[C@@H]3CC[C@@H]4C[C@H](O)CC[C@]4(C)[C@H]3C[C@H](O)[C@]12C [DEOXYCHOLIC ACID]
Response: 0.69

---

Assignment: determine reported Growth Rate for the given molecules.
tested on: HEK-293T; test: Incucyte cell viability with HEK293T; format: toxicity, cell-based; details: human, 6 h, 10 µM, compound concentration 10 uM, replicate number 2; note: unitless GR value; below 1 slowed growth and below 0 cell loss
Answers are plain numbers.

Give Growth Rate for each of the items listed below.
1. Cc1ncsc1-c1ccc(CNC(=O)[C@@H]2C[C@@H](O)CN2C(=O)[C@@H](NC(=O)CCCCNC(=O)c2ccc(-c3ccc(N4CCN(C)CC4)c(NC(=O)c4c[nH]c(=O)cc4C(F)(F)F)c3)cc2)C(C)(C)C)cc1
2. COc1ccccc1C(=O)Nc1cccc(NC(=O)c2cccc(C)c2)c1
3. Cc1ccc2c(N)c(C(=O)NC3CCc4cc(N5CC6CCC(C5)N6)ccc4C3)sc2n1.O=CO (configuration not stated)
4. Cc1cc(C)c(NC(=O)C2CC3CCC2C3)c(C)c1 (configuration not stated)
5. CN1CCCN(C(=O)c2cccc(-c3ccc(/C=C4/C(=O)Nc5ccc(Cl)cc54)o3)c2)CC1
6. CC1CN(CC(=O)N2CC(C)(C)c3nc(CO)c(Cc4ccc(F)cc4)cc32)C(CN2CCOCC2C)CN1 (configuration not stated)
7. CC(=O)O[C@H]1C(=O)[C@@]2(C)[C@H]([C@H](OC(=O)c3ccccc3)[C@]3(O)C[C@H](OC(=O)[C@H](O)[C@@H](NC(=O)c4ccccc4)c4ccccc4)C(C)=C1C3(C)C)[C@]1(OC(C)=O)CO[C@@H]1C[C@@H]2O [PACLITAXEL]

Response:
1. 0.8
2. 0.58
3. -0.64
4. 0.65
5. -0.67
6. 0.88
7. -0.69

---

tested on: HEK-293T; experiment: Incucyte cell viability with HEK293T; assay type: toxicity, cell-based; details: human, 24 h, 10 µM, compound concentration 10 uM, replicate number 2; note: unitless GR value; below 1 slowed growth and below 0 cell loss
# note: exactly 0.2 is not below, so it is label 0; use label 1 for Growth Rate strictly under it

>>> df
                                   compound  category
0  Cc1c(C(=O)Nc2cccc(C(F)(F)F)c2)cc(-c2ccccc2)n1CCCN1CCOCC1.Cl   label 0

Prompt: Field: below-cutoff. Rule: recorded Growth Rate strictly less than 0.2. Subject: C=C(F)C(=O)N1CCN(c2nc(OC[C@@H]3CCCN3C)nc3c2CCN(c2cccc4cccc(Cl)c24)C3)C[C@@H]1CC#N [ADAGRASIB]
Response: label 1

Prompt: Field: below-cutoff. Rule: recorded Growth Rate strictly less than 0.2. Subject: `Cn1cc(-n2cnc3c(NCc4nc5cc(Cl)c(Cl)cc5[nH]4)nc(N4CCOCC4)nc32)cn1`
Response: label 1

Prompt: Field: below-cutoff. Rule: recorded Growth Rate strictly less than 0.2. Subject: Cn1cc(-c2cnc3ccc4ccc(CS(=O)(=O)NCc5ccccn5)cc4c(=O)c3c2)cn1 [MK-8033]
Response: label 0

Prompt: Field: below-cutoff. Rule: recorded Growth Rate strictly less than 0.2. Subject: `C[C@]12CC[C@@H]3c4ccc(O)cc4CC[C@H]3[C@@H]1C[C@H]1OC(=O)C[C@]12O`
Response: label 0

Prompt: Field: below-cutoff. Rule: recorded Growth Rate strictly less than 0.2. Subject: CN(C)CCCN1c2ccccc2Sc2ccc(Cl)cc21.Cl [CHLORPROMAZINE HYDROCHLORIDE]
Response: label 1

Prompt: Field: below-cutoff. Rule: recorded Growth Rate strictly less than 0.2. Subject: `Cc1cccc(CC(=O)N2CCc3c2ccc(-c2cn(C)c4ncnc(N)c24)c3F)n1`
Response: label 0

Prompt: Field: below-cutoff. Rule: recorded Growth Rate strictly less than 0.2. Subject: `COCCNc1nc2ccc(C#CC3(O)CCCCC3)cc2n1-c1ccnc(N)n1`
Response: label 0

---

tested on: Fibroblast; experiment: Incucyte cell viability with human fibroblast; assay type: toxicity, cell-based; settings: 18 h, 10 µM, compound concentration 10 uM, replicate number 1; note: unitless GR value; below 1 slowed growth and below 0 cell loss
MEASURED_PARAMETER: Growth Rate

>>> print(df.to_string())
                                   compound  result_value
0  CN(C1CCc2c(c3ccccc3n2CC(=O)O)C1)S(=O)(=O)c1ccc(F)cc1 (stereo not drawn)          0.85

Give Growth Rate for each of the items listed below.
1. Cc1ccc(-c2c(C(=O)CF)n(CCCO)c3ncnc(N)c23)cc1
2. COc1ccccc1N1CCN(c2ncnc3c2cnn3-c2ccccc2)CC1
3. Cc1ccc(C(=O)Nc2cc(N3CCN(C)CC3)cc(C(F)(F)F)c2)cc1-n1cc(-c2cnn(C)c2C)nn1.Cl
4. O=C1C[C@@H]2OCC=C3CN4CC[C@]56c7ccccc7N1[C@H]5[C@H]2[C@H]3C[C@H]46
5. CC[N+](CC)(CC)CCOc1ccc(/C=C/c2ccccc2)cc1.[I-] [STILONIUM IODIDE]
6. COc1ccccc1Nc1nc(-c2nn(Cc3c(F)cc(OCCCO)cc3F)c3ccccc23)ncc1OC

Response:
1. 0.29
2. 0.39
3. 0.22
4. 0.57
5. 0.28
6. 0.85
